Entries annotated with measured melting point

INSERT INTO assay_data (molecule, reported_measurement) VALUES
  ('CCc1nc2c(N)nc3ccccc3c2n1CCCCNS(C)(=O)=O', '198 to 200 °C'),
  ('CCOC(=O)C(=O)Nc1nc2c(s1)C(=O)c1ccccc1-2', '237 to 238 °C'),
  ('CCCC12C=CC=C(N3CCC(c4noc5cc(F)ccc45)CC3)C1(O)C(=O)NC2=O (centres undefined)', '162 to 163 °C'),
  ('Cn1c(C(F)(F)F)cc(=O)n(-c2cc(OCC(=O)c3ccccc3)c(Cl)cc2F)c1=O', '152 to 153 °C'),
  ('CCCC(=O)c1cccc(NC(=O)C=C(C)Cl)c1', '106 °C'),
  ('NC(=O)c1cc2c(Oc3cccc(C(F)(F)F)c3)cncc2s1', '175 to 176 °C'),
  ('CC(=O)OC1CCc2c(C#N)cccc21 (centres undefined)', '65 °C'),
  ('CCN(C)c1nc(-c2cc(OC)c(OC)c(OC)c2)nc2sc(C#N)c(C)c12', '163 to 164 °C');

Enquiry: Using the record for C(=CCN1C(c2ccccc2)CCCC1c1ccccc1)CN1C(c2ccccc2)CCCC1c1ccccc1 (centres undefined) , state its measured melting point.
Return: 197 to 200 °C

Enquiry: Complete the entry with melting point for Cc1ccc(-c2n[nH]c(=O)c(-c3ccccc3)c2-c2ccc(C)cc2)cc1
Return: 282 to 284 °C

Enquiry: Give melting point for Cc1cccc(C(=O)c2[nH]c3cc(Cl)ccc3c2NC(N)=O)c1
Return: > 280 °C

Enquiry: Answer with reported melting point of O=C(C(=O)N1CCCCC1)N1CCCCC1
Return: 88 to 90 °C

Enquiry: Output measured melting point for this item: CCS(=O)(=O)c1ccc(COc2cccc3c2CN(C2CCC(=O)NC2=O)C3=O)cc1 (centres undefined)
Return: 248 to 250 °C

Enquiry: // fetch melting point given entry CCOC(=O)N1CCc2c(sc3nc(-c4ccc(Cl)cc4)cn23)C1
Return: 156 to 159 °C
